Reported one-hybrid fitness for binding NBS DNA is given for each of the following variants.
B1: Caulobacter ParB omega fusion; a variant is named by its letters at X, in order, B8GW30 (parent)
chain: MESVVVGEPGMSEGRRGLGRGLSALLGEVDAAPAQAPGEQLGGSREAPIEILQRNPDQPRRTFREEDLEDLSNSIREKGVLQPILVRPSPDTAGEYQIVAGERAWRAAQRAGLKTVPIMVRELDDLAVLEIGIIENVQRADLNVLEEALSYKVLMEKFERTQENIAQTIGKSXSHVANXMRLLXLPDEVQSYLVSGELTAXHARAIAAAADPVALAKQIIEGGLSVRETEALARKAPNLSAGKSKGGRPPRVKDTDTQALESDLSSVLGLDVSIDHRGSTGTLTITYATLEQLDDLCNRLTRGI

Variants of: B1
Assay: one-hybrid fitness for binding NBS DNA (the Noc-binding site; scaled: cognate 1, non-cognate 0); higher = stronger binding
Settings: with NBS DNA site
Over roughly 81,000 sequences, “one-hybrid fitness for binding NBS DNA” has its median near -0.1; the highest 2% begin near 0.36. Only a selection was taken, and the highest values are over-represented in it overall.

Take a look at these entries with their results.
Lookup: Give me measured one-hybrid fitness for binding NBS DNA, please, for this variant: RQYA
Found: ≤ 0.2

Lookup: Give me measured one-hybrid fitness for binding NBS DNA, please, for this variant: RSPS
Found: ≤ 0.2

Lookup: Give me measured one-hybrid fitness for binding NBS DNA, please, for this variant: RCDS
Found: ≤ 0.2

Further cases:
Lookup: Give me measured one-hybrid fitness for binding NBS DNA, please, for this variant: GLWQ
Found: ≤ 0.2

Lookup: Give me measured one-hybrid fitness for binding NBS DNA, please, for this variant: RTGN
Found: ≤ 0.2
